System: 786-0 renal
Assay: NCI-60 one-dose screen, 48 h (100 = growth as untreated, 0 = no growth, -100 = all killed)
Conditions: 10 µM unless noted
Compounds without any hit were thinned out: in the full panel of roughly 83,000, 20% have a hit. Calls of active or inactive are those of the source. How the source made its calls: active means growth percent below 10; inactive means the rest.
Endpoint: growth

Inquiry: Query (compound): Cc1ccc(-c2cc(O)c(-c3ccc(C)cc3C)cc2O)c(C)c1 ; field requested: growth
Reply text: 60% (inactive)

Inquiry: Can you share its growth? I mean this compound: O=C(Nc1ccc(Oc2ccc(F)cc2)c(Cl)c1)c1cnccn1
Reply text: 81% (inactive)

Inquiry: What does the record list as growth for CCOC(=O)c1ccc2nc(-c3c(C)nn(-c4ccccc4)c3N3CCOCC3)[nH]c2c1 ?
Reply text: 104% (inactive)

Inquiry: Field request: growth | item: CCCc1cc2cc(-n3nc(C)c4c3CC(C)(C)CC4=O)cc(NC3CCSCC3)c2c(=O)[nH]1
Reply text: 66.8% (inactive)

Inquiry: Which value of growth has been reported for Cc1cc(N2CCCCCC2)nc(N2CCN(CC(=O)Nc3ccc4c(ccn4Cc4ccccc4)c3)CC2)n1 in the records?
Reply text: 39% (inactive)

Inquiry: Item c1coc2occoc=2o1 has what recorded growth?
Reply text: 102% (inactive)

Inquiry: So what's the measured growth for this one? COc1ccc2c(c1)C(C)Cc1c(Cl)ncnc1N2C (stereo not given)
Reply text: 7.84% (active)

Inquiry: Quick one: growth of COc1cc2c(cc1OCCCCCOc1ccc(-n3c(C)nc4ccccc4c3=O)cc1)N=C[C@@H]1CCCN1C2=O ?
Reply text: -42.5% (active)

Inquiry: # input compound: COc1ccc2c(c1)C(C)Cc1c(ncnc1-n1cnc3ccccc31)N2C (stereo not given) ; wanted: its growth
Reply text: 29% (inactive)

Inquiry: What does the record list as growth for O=C(Nc1cccc(F)c1)c1cc(=O)[nH]c2cc(Br)ccc12 ?
Reply text: 69.7% (inactive)

Inquiry: Please report the recorded growth for CCOC(=O)C(C(C)=O)c1nc2sc3cc(Cl)c(Cl)cc3n2c(=O)c1C#N (stereo not given) .
Reply text: 114% (inactive)

Inquiry: Any idea what growth was measured for Cn1cc(-c2noc(-c3cn(C)c4ncc(F)cc34)n2)c2ccccc21 ?
Reply text: 33.6% (inactive)

Inquiry: Value lookup for growth; key = CC(=O)CC(=O)SC1=NCCS1
Reply text: 109% (inactive)

Inquiry: Return reported growth; argument: CCN=C1C=CC(=C(c2ccc(N(CC)CC)cc2)c2ccc(N(CC)CC)cc2)c2ccccc21
Reply text: -64.3% (active)

Inquiry: What growth value was documented for this compound, CC(=O)OC[C@]12CC[C@@H]([C@@H](C)C(N)=O)[C@@H]1[C@H]1CC[C@@H]3[C@@]4(C)CC[C@H](OC(C)=O)C(C)(C)[C@@H]4CC[C@@]3(C)[C@]1(C)CC2 ?
Reply text: -74% [100 µM] (active)

Inquiry: Can you look up the measured growth of Cc1cccc(/C=C2\N=C(c3ccccc3)N(c3ccc(S(N)(=O)=O)cc3)C2=O)c1 for me?
Reply text: 95.2% (inactive)

Inquiry: I am curious: what growth value has been reported for C[C@@H]1C[C@H]2C(=O)O[C@@H](C)[C@H](NC(=O)[C@H](Cc3cc(F)cc(F)c3)NC(=O)Nc3ccc(C4CC4)cc3F)C(=O)N3CCC[C@H]3C(=O)N3CCCC[C@H]3C(=O)N[C@@H](C)C(=O)N2C1 ?
Reply text: 20% (inactive)

Inquiry: Which growth value is on record for c1nc(N2CCOCC2)c2[nH]ccc2n1 ?
Reply text: 101% (inactive)

Inquiry: Which measured growth value corresponds to CN(C)c1ccc(N=Nc2ccc3ccccc3c2)cc1 ?
Reply text: 122% (inactive)

Inquiry: Suppose we examine the compound c1cc2ccc1CNCCN1CCNCc3ccc(cc3)Oc3ccc(cc3)CNCCN(CCNCc3ccc(cc3)O2)CCNCc2ccc(cc2)Oc2ccc(cc2)CNCC1 ; what growth value has been reported?
Reply text: 66.2% (inactive)

Inquiry: Fill blank: measured growth of the compound CC(C)OC(=O)Nc1cc(F)c(F)cc1F is ____.
Reply text: 107% (inactive)

Inquiry: Give the measured growth of Cn1ncc2c(Nc3ccc(O)cc3)nc(Cl)nc21 .
Reply text: 111% (inactive)

Inquiry: Can you share its growth? I mean this compound: C[n+]1c2ccccc2nc2c(N)cc(N)cc21
Reply text: 62.2% (inactive)

Inquiry: Given CCCN1CC(c2ccc(OC)c(OC)c2)=C(c2cn(C(=O)OCC)c3ccccc23)C1=O , state its recorded growth.
Reply text: 54.6% (inactive)

Inquiry: # get_value(readout='growth', item= O=C(NCc1ccc(Cn2c(=O)sn(-c3ccccc3)c2=O)cc1)OCc1ccc2c(Br)cc(Br)c(O)c2n1 )
Reply text: -78.7% (active)

Inquiry: Entry Cc1cc(SC#N)ncn1 has what growth?
Reply text: 109% (inactive)

Inquiry: Consider the compound CC(C)c1ccc(C(=O)Nc2nc3ccc(O)cc3s2)cc1 and give its measured growth.
Reply text: 0.538% (active)

Inquiry: Entry COc1ccc(N(c2nc(-c3ccc([N+](=O)[O-])cc3)cs2)C(C)C)cc1 has what growth?
Reply text: 88.4% (inactive)

Inquiry: Look up growth: COC(=O)[C@@H](NC(=O)NC(=O)NC(=O)CI)C(C)C
Reply text: -25.1% (active)

Inquiry: # growth lookup, item CCCSc1nc(N)nc2nc[nH]c12
Reply text: 97.5% (inactive)

----------
System: IGROV1 ovarian
Test: NCI-60 one-dose screen, 48 h
Details: 10 µM unless noted
Compounds without any hit were thinned out: in the full panel of roughly 83,000, 20% have a hit. Activity calls are given as the source filed them. How the source made its calls: active means growth percent below 10; inactive means the rest.
Thanks in advance; please answer with one of these: active, inactive

Inquiry: // outcome(item) with item = CCn1cc(-c2ccnc(NCCNS(=O)(=O)c3ccc(Br)cc3)c2)c(-c2cccc(OC)c2)n1
Reply text: inactive

Inquiry: Outcome? Cc1nc(-c2ccccc2)sc1CC#N
Reply text: inactive

Inquiry: For Cc1ccc(NC(=O)N[C@@H](Cc2cc(F)cc(F)c2)C(=O)N[C@@H]2C(=O)N3CCC[C@H]3C(=O)N3CCOC[C@H]3C(=O)N[C@@H](C)C(=O)N3C[C@H](C)C[C@H]3C(=O)O[C@H]2C)cc1 , what call appears in the results of this test?
Reply text: inactive

Inquiry: So what was the verdict on COc1cc2c(cc1OCCCCCOc1ccc(-n3c(C)nc4ccccc4c3=O)cc1)N=C[C@@H]1CCCN1C2=O in this test?
Reply text: active

Inquiry: # lookup: test call for Cc1nc(Cl)cc(N(c2cc(Cl)nc(C)n2)c2ncc(C(=O)Nc3c(C)cccc3Cl)s2)n1
Reply text: active

Inquiry: # fetch the recorded call for CCOc1ccc(S(=O)(=O)Nc2ccc3c(c2)N(S(=O)(=O)CC)CCC3)cc1 here
Reply text: inactive

Inquiry: Could you kindly confirm the outcome this assay logged for CSc1nc(N)c(N=Nc2ccc(S(=O)(=O)Nc3nnc(C)s3)cc2)c(=O)[nH]1 ?
Reply text: inactive

Inquiry: Per the records of this test, what outcome belongs to COc1cc(-c2nc(SCCC(C)C)nc(Nc3ccccc3)c2C#N)cc(OC)c1OC ?
Reply text: inactive

Inquiry: Recorded call for CC(C)=CCC[C@](C)(O)[C@H]1CC[C@]2(C)[C@@H]1CC[C@@H]1[C@@]3(C)CC[C@H](OC(=O)CCC(=O)O)C(C)(C)[C@@H]3CC[C@]12C ?
Reply text: inactive

Inquiry: Which outcome was assigned to CCOc1ccc2sc(NS(=O)(=O)c3ccc(N)cc3)nc2c1 in this test?
Reply text: inactive

Inquiry: # lookup: test call for O=C(NNc1ccc(-c2ccccc2)nn1)c1ccccc1
Reply text: inactive

Inquiry: Just curious, what result did CC(=O)OC[C@]12CC[C@@H](C(=O)CBr)[C@@H]1[C@H]1CC[C@@H]3[C@@]4(C)CCCNC(C)(C)[C@@H]4CC[C@@]3(C)[C@]1(C)CC2 get here?
Reply text: active

Inquiry: Per the assay record, what outcome was assigned to Cc1cccc(/C=C2\N=C(c3ccccc3)N(c3ccc(S(N)(=O)=O)cc3)C2=O)c1 ?
Reply text: inactive

Inquiry: Please let me know the test result on file for Cn1cc(-c2nnc(-c3cn(C)c4ncc(Br)cc34)o2)c2ccccc21 .
Reply text: inactive

Inquiry: Identify the outcome logged in this assay for the compound shown: Cc1cc(C)c(O)c(CNCCCCCCNCc2cc(C)cc(C)c2O)c1
Reply text: inactive

Inquiry: Short answer needed: outcome of this test for CC(=O)OC[C@]12CC[C@@H]([C@@H](C)C(N)=O)[C@@H]1[C@H]1CC[C@@H]3[C@@]4(C)CC[C@H](OC(C)=O)C(C)(C)[C@@H]4CC[C@@]3(C)[C@]1(C)CC2 ?
Reply text: active

Inquiry: Per the records of this test, what outcome belongs to CCc1ccc(NC(=O)N[C@@H](Cc2cc(F)cc(F)c2)C(=O)N[C@@H]2C(=O)N3C[C@H](O)C[C@H]3C(=O)N3CCOC[C@H]3C(=O)N[C@@H](C)C(=O)N3C[C@H](C)C[C@H]3C(=O)O[C@H]2C)cc1 ?
Reply text: inactive

Inquiry: Hi, sorry to bother you, what did the test record for COc1cc(/C=C/C(=O)/C=C/c2ccc(-n3ccnc3)cc2)ccc1O ?
Reply text: active

Inquiry: Which outcome did this test record for the compound CC1(C)CC[C@]23CC[C@]4(C)[C@H](CC[C@@H]5[C@@]6(C)C/C(=C/c7ccncc7)C(=O)C(C)(C)[C@@H]6CC[C@]54C)[C@H]2[C@H]1OC3=O ?
Reply text: inactive

Inquiry: For this compound, state the assay outcome: CN(C)C(=S)Sc1ccc([N+](=O)[O-])cc1[N+](=O)[O-]
Reply text: active

Inquiry: Please state the recorded outcome for this compound: Fc1cc2[nH]ncc2c2c3c(c(-c4cn[nH]c4)nc12)CCCC3
Reply text: active

Inquiry: What was the test verdict on CCN(CC)CCCC(C)Nc1ccnc2cc(Cl)c(SCc3ccccc3)cc12 (centres undefined) ?
Reply text: active

Inquiry: Entry CCN(CC)c1ccc2cc(C(Nc3ccc(Br)c(C(F)(F)F)c3)c3nnnn3C(C)(C)C)c(=O)oc2c1 (centres undefined) : call = ?
Reply text: inactive

Inquiry: # fetch the recorded call for CC1Cc2c(ncnc2-n2cnc3ccccc32)N(C)c2ccccc21 (centres undefined) here
Reply text: inactive

Inquiry: Tell me the recorded outcome of this test for COc1cc2c(c(OC)c1)C1c3cc(OC)ccc3NC(=O)N1CC2 (centres undefined) .
Reply text: inactive

Inquiry: Please share the test call associated with Cc1ccccc1-n1nnc(C(=O)Nc2nc3ccc(F)cc3s2)c1C .
Reply text: inactive

Inquiry: Can you look up the reported call for CC1(C)CC[C@]2(C(N)=O)CC[C@]3(C)C(=CC[C@@H]4[C@@]5(C)C/C(=C/c6cccnc6)C(=O)C(C)(C)[C@@H]5CC[C@]43C)[C@@H]2C1 for me?
Reply text: active

Inquiry: What outcome does the record of this test show for Oc1cc(Nc2ccnc3cc(Cl)ccc23)c2ncccc2c1 ?
Reply text: inactive

Inquiry: Given COc1ccc(C(=O)CSc2nccc(Nc3ccc(C(=O)O)cc3)n2)cc1 , state the outcome it received in this test.
Reply text: inactive

Inquiry: Check the results log: what was the call for Clc1ccc2nc(-c3ccc(-c4ccc(/C=N/NC5=NCCN5)cc4)s3)cn2c1 ?
Reply text: inactive

Inquiry: Please indicate how the test categorized COC(=O)C(=Cc1ccccc1[N+](=O)[O-])C(=O)OC .
Reply text: inactive

Inquiry: Can you look up the reported call for O=C(Nc1ccc(Nc2ccncc2)cc1)c1ccc([N+](=O)[O-])cc1 for me?
Reply text: inactive

Inquiry: For C#C[C@]1(O)CC[C@H]2[C@@H]3CC=C4c5nc(Nc6ccccc6[N+](=O)[O-])sc5CC[C@]4(C)[C@H]3CC[C@@]21C , which call appears in the assay record?
Reply text: inactive

Inquiry: Outcome? CC(=O)Nc1ccc2nc3ccc(NC(C)=O)cc3[n+](-c3ccccc3)c2c1
Reply text: inactive
